# TARGET_UNDER_TEST: HLA-A*24 (human)
# EXPERIMENT: UV peptide exchange, anti-b2m ELISA
Each record here notes measured peptide exchange yield.

[
  {
    "BINDER": "IFPQFLYQF [SEQ ID No 186 peptide …]",
    "peptide exchange yield": "> 75%"
  }
]

Q. Suppose we examine the binder LYHDIFSRL [SEQ ID No 271 peptide …] ; what peptide exchange yield value has been reported?
A. > 75%

Q. Try this binder too: RFHPTPLLL [SEQ ID No 193 peptide …]
A. > 75%

Q. Try this binder too: LFIPSSKLLFL [SEQ ID No 171 peptide …]
A. 50 to 75%

Q. Try this binder too: YFIDSTNLKTHF [SEQ ID No 269 peptide …]
A. 50 to 75%

Q. Try this binder too: RYPDNLKHL [SEQ ID No 286 peptide …]
A. 20 to 49%

Q. Try this binder too: YYVYIMNHL [SEQ ID No 225 peptide …]
A. 50 to 75%

Q. Try this binder too: YYKSTSSAF [SEQ ID No 218 peptide …]
A. 50 to 75%

Q. Try this binder too: MYDSYWRQF [SEQ ID No 179 peptide …]
A. > 75%

Q. Try this binder too: YFDKVVTL [SEQ ID No 215 peptide YFDKVVTL]
A. 20 to 49%

Q. Try this binder too: TYELRYFQI [SEQ ID No 204 peptide …]
A. > 75%

Q. Try this binder too: TYLRDQHFL [SEQ ID No 187 peptide …]
A. > 75%

Q. Try this binder too: VYWDSAGAAHF [SEQ ID No 202 peptide …]
A. > 75%

Q. Try this binder too: VYRDETGELF [SEQ ID No 226 peptide …]
A. 50 to 75%

Q. Try this binder too: GFFIFNERF [SEQ ID No 190 peptide …]
A. 50 to 75%

Q. Try this binder too: QYSSVFKSL [SEQ ID No 216 peptide …]
A. > 75%
